System: SNB-19 CNS
ASSAY: NCI-60 one-dose screen, 48 h (100 = growth as untreated, 0 = no growth, -100 = all killed)
EXPERIMENTAL CONDITIONS: 10 µM unless noted
Method: Growth inhibition of the SNB-19 human tumor cell line is measured as a screen for anti-cancer activity. Cells are grown in 96 well plates and exposed to the test compound for 48 hours. Compounds are tested at a single concentration, which is 10^-5 M for most compounds. The reported endpoint is percent growth (GI% or GIPRCNT), where numbers from 0 - 100% represent growth inhibition, and numbers from -100% - 0 represent cell death. For example, a value of 40 represents 60% growth inhibition. […]
About 83,000 compounds went through this panel and 20% of them were active in at least one assay; those are over-represented in the sample as a whole.
I would appreciate it if you labelled entries YES when growth is 80% or higher, otherwise NO.

COMPOUND	SUBJECT OF TEST	CAT
CC(=O)Nc1ccc(/C=N/N2CCCCCC2)cc1	SNB-19 CNS	YES
CCCCSc1ncnc2c1ncn2C1CCCCO1 (centres undefined)	SNB-19 CNS	YES
O=C1Nc2ccc(Cl)cc2/C1=C\c1c(-c2ccc(F)cc2)nc2ccccn12	SNB-19 CNS	NO
CCOCCNc1ccc(S(=O)(=O)c2ccc(N)cc2)cc1N	SNB-19 CNS	YES
CCC1=CC2CN(C1)Cc1c([nH]c3ccccc13)[C@@](C(=O)OC)(c1cc3c(cc1OC)N(C)[C@H]1[C@@](O)(C(=O)OC)[C@H](OC(C)=O)[C@]4(CC)C=CCN5CC[C@]31[C@@H]54)C2 (some centres undefined)	SNB-19 CNS	NO
COc1ncnc2[nH]cc(CN3CCN(c4ccc(F)cc4)CC3)c12	SNB-19 CNS	YES
O=C(O/C(=C/c1ccccc1)C(F)(F)F)c1ccccc1	SNB-19 CNS	YES
CC(C)c1ccc2c(c1)CCC1C2CCCC1(C)NCc1ccccc1 (centres undefined)	SNB-19 CNS	YES
O=C1N(Cc2ccccc2Cl)c2ccccc2C12NN=C(c1ccccc1)S2 (centres undefined)	SNB-19 CNS	NO
COc1cc(/C=C\c2cc(/C=C\c3ccc(O)c(OC)c3)n(C(=O)Nc3ccc(C(F)(F)F)cc3)n2)ccc1O	SNB-19 CNS	NO
CCc1onc(-c2ccc(OC)cc2)c1-c1ccccc1OCCN(CC)CC	SNB-19 CNS	YES
COc1ccccc1CNCCCN1C(=O)c2ccc3c4c(ccc(c24)C1=O)C(=O)N(CCCNCCCN)C3=O	SNB-19 CNS	NO
COc1ccc(NC(=O)Cn2c(=O)sc3c(-c4ccc(Cl)cc4)cc(-c4ccc(Cl)cc4)nc32)cc1	SNB-19 CNS	YES
Cc1ccc([C@H]2c3[nH]c4ccccc4c3C[C@H]3C(=O)N(CCCCCCC(=O)NO)CC(=O)N23)cc1	SNB-19 CNS	NO
CN(C)c1nc(-c2cccs2)n2nc(-c3ccc(Cl)cc3)cc2n1	SNB-19 CNS	NO
COc1ccc(-c2nc3ccccc3n3cccc23)cc1	SNB-19 CNS	YES
O=c1c2cc(Cl)ccc2oc2ccc(OCCCCCN3CCCCCC3)cc12	SNB-19 CNS	YES
CC(=O)OC[C@H]1O[C@@H](n2c(=O)cc(N)[nH]c2=O)C(OC(C)=O)[C@@H]1OC(C)=O (some centres undefined)	SNB-19 CNS	YES
O=S1(=O)NCCN1CCNc1nccc(-c2c(-c3cccc(O)c3)nc3sccn23)n1	SNB-19 CNS	YES
Nc1c(C(=O)C[C@@H](N)CO)ccc2c1C(=O)CCO2	SNB-19 CNS	NO
COc1cccc(-c2nc3sccn3c2-c2ccnc(NCCN3CCCNS3(=O)=O)n2)c1	SNB-19 CNS	YES
C=C[C@H]1CCC/C=C/[C@@H]2C[C@H](O)C[C@H]2[C@H](O)/C=C/C(=O)O1	SNB-19 CNS	NO
COc1ccccc1-[n+]1cc(-c2ccc(-c3ccccc3)cc2)n2c1CCCCC2	SNB-19 CNS	NO
COc1ccc2nc3cc(Cl)ccc3c(NC(=O)CSc3ccc(Cl)cc3)c2c1	SNB-19 CNS	NO
O=C(Nc1ccc(Cl)cc1)c1cc(-c2ccc(Cl)cc2)c2sc(=O)[nH]c2n1	SNB-19 CNS	NO
COc1ccc2c(c1)N(Cc1ccc(Cl)cc1)CCC2N1CCCC1=O (centres undefined)	SNB-19 CNS	NO
S=C(Cc1ccccc1)N1CCN(c2ccccc2Cl)CC1	SNB-19 CNS	YES
CCOC(=O)c1cnc(SCC)nc1SC#N	SNB-19 CNS	YES
COc1ccc(-c2ccc(-c3ccc(C(=N)N)s3)s2)cc1	SNB-19 CNS	NO
O=C1SCN(Cc2ccccc2)CN1Cc1ccccc1	SNB-19 CNS	YES
Cc1ccsc1C(=O)CC(=O)C(F)(F)C(F)(F)C(F)(F)F	SNB-19 CNS	YES
O=C(N/N=C/c1ccc([N+](=O)[O-])cc1)c1ccccc1Nc1ccnc(C(F)(F)F)c1	SNB-19 CNS	YES
